# METHOD_NOTES: VP16 transactivation reporter inhibitors, counter-screen for LRH-1 inverse agonist project, cell-based, luminescence, high throughput (AID 651615)
# MEASUREMENT_PARAMETERS: Gal4-VP16 luciferase reporter cells, at 3.6 µM, hits give high values
VALUE_TYPE: inhibition (%)
Please reply with the bare figure in % and do not write the unit itself.

Check out these entries, answers already filled in.
Input line: Requested read-out: inhibition. Entry: `CCn1c2ccccc2c2cc(/C=N/n3cn[nH]c3=S)ccc21`
Output line: -3.24

Input line: Requested read-out: inhibition. Entry: `Nc1ccc(Nc2ccncc2[N+](=O)[O-])cc1`
Output line: 15.7

Input line: Requested read-out: inhibition. Entry: CC1CCC2(CC1)NC(=O)N(CC(=O)Nc1ccc3c(c1)OCCCO3)C2=O (stereo unspecified)
Output line: -7.87

Input line: Requested read-out: inhibition. Entry: `COc1ccc(NC(=S)NCCc2ccc(F)cc2)c(OC)c1`
Output line: -8.33

Input line: Requested read-out: inhibition. Entry: `CC(=NNC(=S)Nc1ccccc1)c1ccccn1`
Output line: 85.6

More entries:
Input line: Requested read-out: inhibition. Entry: `COc1ccc(NS(=O)(=O)c2cccc(NC(=O)c3ccc(Cl)nc3)c2)cc1`
Output line: 55.4
